- Target: EBOV GP ectodomain residues 1-636 (GPec) (Zaire ebolavirus, strain  …, UniProt Q05320)

Binder	binding result
5.6.c2693 (antibody, V domains shown) VH: QVQVVESGGGVVQPGRSLRLTCATSGFTFRSYGMHWVRQAPGKGLEWVAGISYDGSNKYYADSVKGRFSISRDNSKNTVYLQMNSLRVEDTAVYYCANQLICVNGVCYKTTSVAGIDYWGQGTLVTVSS VL: DIQMTQSPSSLSASVGDRVTITCRASQDISNYLAWFQQKPGKAPKCLIYAASSLQSGVPSKFSGSGSGTDFTLTISSLQPEDFATYYCQQYKDYPLTFGPGTKVDVR	binds
15.0.c770 (antibody, V domains shown) VH: QVHLVESGGGVVQPGRSLRLSCAVSGFTFSSCGMHWVRQAPGKGLEWVAVISYDGSDKYYADSVKGRFTISRDNSNNTLYLQMNSLSIEDTAVYYCAKDYYYGSGSDLYYYYYGMDVWGLGTTVTVSS VL: EIVLTQSPGTLSLSPGDRATLSCRASQSVSSTYLAWYQQKPGQAPRLLIYGASSRATGIPDRFSGSGSGTDFTLTISRLEPEDFAVYYCQQYVTSPYSFGQGTKLEIK	binds
5.6.c2481 (antibody, V domains shown) VH: QLQLQESGPGLVKPSETLSLTCTVSGGSISSSTYYWGWIRQPPGKGLEWIGSIFYRGITYYNPSLKSRVTISVDTSKNQFSLKLSSVTAADTAVYYCARGGVIVLMVYAIVPPDVWGQGTTVTVSS VL: QSALTQPASVSGSPGQSITISCTGSRSDVGGYNYVSWYQQHPGKAPKLMISDVSNRPSGVSNRFSGSKSGNTASLTISGLQAEDEADYYCSSYTSSSTVVFGGGTKLTVL	binds

All values here come from paper PMC6908968.
